Where do these numbers come from? They come from paper PMC4705477.

- assay.system: T1, NBD (nonamer binding domain of RAG1) (mouse, UniProt P15919 384-461)
- T1 sequence: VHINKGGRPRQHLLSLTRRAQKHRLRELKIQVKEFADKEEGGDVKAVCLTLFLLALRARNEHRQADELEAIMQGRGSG
- measurement.notes: EMSA; 5 mM Ca2+; NBD EMSA: 10 mM Tris-HCl pH 7.5, 33 mM KCl, 5 mM CaCl2, 2 mM DTT, 0.1 mg/ml BSA, 6% glycerol, 15 min 30 C; cRAG EMSA: 22.5 mM MOPS-KOH pH 7.0, 20% DMSO, 2.2 mM
- condition.label: protein: recombinant; tags: N-terminal His6 (pET28a); label: 5' 32P; blunt

# binder, binding result
records = [
    ("A/T 28 bp (MS101/DR41) (dsDNA) DNA 1: TTTTTTTTTTTTTTTTTTTTTTTTTTTT DNA 2: AAAAAAAAAAAAAAAAAAAAAAAAAAAA", "binds"),
    ("A/T 10 bp (MS103/DR38) (dsDNA) DNA 1: TTTTTTTTTT DNA 2: AAAAAAAAAA", "no binding"),
    ("A/T 22 bp (MS100/DR40) (dsDNA) DNA 1: TTTTTTTTTTTTTTTTTTTTTT DNA 2: AAAAAAAAAAAAAAAAAAAAAA", "no binding"),
    ("A/T 16 bp (MS102/DR39) (dsDNA) DNA 1: TTTTTTTTTTTTTTTT DNA 2: AAAAAAAAAAAAAAAA", "no binding"),
]
